Values were extracted from patent EP0554004A2.

Items are presented alongside their recorded MIC.
Tested on: M. luteus ATCC 9341
Assay: MIC against standard strains (Test Example 3)
Assay type: cell-based
Conditions: Micrococcus luteus, ATCC9341; M. luteus ATCC 9341 (Test Example 3); read-out: MIC
Reply with just the number (in µg/mL).

CNC(=O)c1ccc[n+](CC2=C(C(=O)[O-])N3C(=O)[C@@H](NC(=O)/C(=N\O)c4csc(N)n4)[C@H]3SC2)c1 | 0.1

Exercise: Would you mind telling me what MIC value was observed for "CNc1nc(-c2ccc[n+](CC3=C(C(=O)[O-])N4C(=O)[C@@H](NC(=O)/C(=N\O)c5csc(N)n5)[C@H]4SC3)c2)cs1" ?
Key: 0.1

Exercise: Would you mind telling me what MIC value was observed for "NC(=O)Cc1ccc[n+](CC2=C(C(=O)[O-])N3C(=O)[C@@H](NC(=O)/C(=N\O)c4csc(N)n4)[C@H]3SC2)c1" ?
Key: 0.1
